TEST TARGET: GST-tagged KRAS-G12D (2-169) (Homo sapiens, UniProt P01116, G12D)
Sequence (P01116 2-169 isoform P01116-2 G12D): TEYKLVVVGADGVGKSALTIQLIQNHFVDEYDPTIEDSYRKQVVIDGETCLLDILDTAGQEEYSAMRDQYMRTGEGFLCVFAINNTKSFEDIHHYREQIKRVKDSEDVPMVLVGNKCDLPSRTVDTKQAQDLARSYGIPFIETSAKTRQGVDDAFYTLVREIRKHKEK
ASSAY REMARKS: Nucleotide exchange assay (NEA), SOS-mediated, HTRF, KRAS G12D
Format: biochemical
COND: Table 4; IC50 extracted at 30 min; 20 nM SOScat; read-out: NEA G12D IC50

| COMPOUND | IC50 |
| --- | --- |
| N#CCC1C=C(F)CN(c2nc(OC[C@@]34CCCN3C[C@H](F)C4)nc(N3CC4(CCc5sc(N)c(C#N)c54)C3)n2)C1 (some centres unmarked) [Compound 25] | 10 to 100 nM |
| CCN(c1nc(OCC23CCCN2CCN(C)C3)nc(N2CC3(C2)SCc2sc(N)c(C#N)c23)n1)[C@H](C)c1cccnc1N (some centres unmarked) [Compound 223] | < 10 nM |
| N#Cc1c(N)sc2c1C1(CC2)CN(c2nc(OC[C@@]34CCCN3C[C@H](F)C4)nc(N(CCO)Cc3cc[nH]n3)n2)C1 [Compound 131] | 100 to 1000 nM |
| CCN(c1nc(OC[C@@]23CCCN2C[C@H](F)C3)nc(N2CC3(CCc4sc(N)c(C#N)c43)C2=O)n1)[C@H](C)c1cccnc1N (some centres unmarked) [Compound 201] | < 10 nM |
| C[C@@]1(O)CCCN(c2nc(OCC3(CN4CCOCC4)CC3)nc(N3CC4(C3)c3c(sc(N)c3C#N)CC4(F)F)n2)C1 [Compound 98] | < 10 nM |
| CC(c1nccnc1O)N(C)c1nc(OC[C@@]23CCCN2C[C@H](F)C3)nc(N2CC3(CCc4sc(N)c(C#N)c43)C2)n1 (some centres unmarked) [Compound 150] | 1000 to 20000 nM |
| CC(=O)CC(=O)N1[C@@H]2CC[C@H]1CN(c1nc(OC[C@@]34CCCN3C[C@H](F)C4)nc(N3CC4(C3)SCc3sc(N)c(C#N)c34)n1)C2 [Compound 145] | 1000 to 20000 nM |
| C[C@@]1(O)CCCN(c2nc(OC[C@@]34CCCN3C[C@H](F)C4)nc(N3CC4(C3)SCc3sc(N)c(C#N)c34)n2)C1 [Compound 49] | < 10 nM |
| N#Cc1c(N)sc2c1C1(CN(c3nc(OC[C@@]45CCCN4C[C@H](F)C5)nc(Oc4cc[nH]n4)n3)C1)SC2 [Compound 165] | 1000 to 20000 nM |
| CC(c1ccccc1N)N(C)c1nc(OC[C@@]23CCCN2C[C@H](F)C3)nc(N2CC3(CCc4sc(N)c(C#N)c43)C2)n1 (some centres unmarked) [Compound 121] | ≥ 20000 nM |
| N#Cc1c(N)sc2c1C1(CC2)CN(c2nc(OC[C@@]34CCCN3C[C@H](F)C4)nc(N3CCCC(C#N)C(O)C3)n2)C1 (mixture of isomers) [Compound 96] | 100 to 1000 nM |

* * *

Each entry below lists one item and its recorded pIC50 value.
TEST TARGET: GST-tagged KRAS-G12V (2-169) (Homo sapiens, UniProt P01116, G12V)
Sequence (P01116 2-169 isoform P01116-2 G12V): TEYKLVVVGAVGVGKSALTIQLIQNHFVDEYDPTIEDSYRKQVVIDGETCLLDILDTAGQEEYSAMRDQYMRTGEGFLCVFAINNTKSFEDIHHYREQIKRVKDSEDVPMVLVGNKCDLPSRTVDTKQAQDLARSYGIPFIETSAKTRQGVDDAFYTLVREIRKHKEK
ASSAY REMARKS: Nucleotide exchange assay (NEA), SOS-mediated, HTRF, KRAS G12V
COND: Table 4; IC50 extracted at 90 min; 80 nM SOS
pIC50: −log10 of the molar value.

| COMPOUND | TEST TARGET | pIC50 |
| --- | --- | --- |
| CN(Cc1cc(C(N)=O)nn1C)c1nc(OC[C@@]23CCCN2C[C@H](F)C3)nc(N2CC3(CCc4sc(N)c(C#N)c43)C2)n1 [Compound 135] | GST-tagged KRAS-G12V (2-169) (Homo sapiens, UniProt P01116, G12V) | 6.00 to 7.00 |
| C[C@@]1(O)CCCN(c2nc(OCC3(CN4CCOCC4)CC3)nc(N3CC4(C3)c3c(sc(N)c3C#N)C[C@@H]4F)n2)C1 [Compound 68] | GST-tagged KRAS-G12V (2-169) (Homo sapiens, UniProt P01116, G12V) | 7.00 to 8.00 |
| N#Cc1c(N)sc2c1C1(CC2)CN(c2nc(OCC34CCCN3CC(F)C4)nc(N3CC4CCC(C3)N4)n2)C1 (stereo not drawn) [Compound 1] | GST-tagged KRAS-G12V (2-169) (Homo sapiens, UniProt P01116, G12V) | 7.00 to 8.00 |
| CN(c1nc(OC[C@@]23CCCN2C[C@H](F)C3)nc(N2CC3(CCc4sc(N)c(C#N)c43)C2)n1)C1CCOC1 (stereo partly drawn) [Compound 36] | GST-tagged KRAS-G12V (2-169) (Homo sapiens, UniProt P01116, G12V) | 6.00 to 7.00 |
| C[C@H](c1ccc(P(C)(C)=O)cc1)N(C)c1nc(OC[C@@]23CCCN2C[C@H](F)C3)nc(N2CC3(C2)SCc2sc(N)c(C#N)c23)n1 [Compound 229] | GST-tagged KRAS-G12V (2-169) (Homo sapiens, UniProt P01116, G12V) | 4.70 to 6.00 |
| CC(c1nsnc1N)N(C)c1nc(OC[C@@]23CCCN2C[C@H](F)C3)nc(N2CC3(C2)SCc2sc(N)c(C#N)c23)n1 (single isomer, unassigned) [Compound 184A] | GST-tagged KRAS-G12V (2-169) (Homo sapiens, UniProt P01116, G12V) | > 8.00 |

* * *

Each entry below lists one item and its recorded pIC50 value.
System: phospho-ERK in SW620 (KRAS-G12V) cells
ASSAY REMARKS: pERK In Cell Western (ICW) assay (Method B), SW620
Format: cell-based
COND: Homo sapiens, SW-620, 3 h, Table 4
Excerpt: pERK ICW is a high throughput screening assay to evaluate the cellular potency of mutant KRAS small molecule inhibitors. KRAS mutant cell lines AGS, GP2D (KRAS-G12D) as well as SW620 (KRAS-G12V) were purchased from ATCC and maintained respectively in RPMI/DMEM/RPMI medium supplemented with 10% fetal bovine serum. Cells grown in exponential phase were trypsinized, resuspended in fresh media, and viable cells were counted using a cell counter with Trypan Blue (BioRad TC20). […]
pIC50: −log10 of the molar value.
PARAMETER MEASURED: pIC50

| COMPOUND | RESULT |
| --- | --- |
| N#Cc1c(N)sc2c1C1(CC2)CN(c2nc(OCC3(CN4CCOCC4)CC3)nc(N3CCCC(O)(C(F)F)C3)n2)C1 (stereo not drawn) [Compound 106] | 4.70 to 6.00 |
| CCN(c1nc(OC[C@@]23CCCN2C[C@H](F)C3)nc(N2CC3(CCc4sc(N)c(C#N)c43)C2)n1)[C@H](C)c1cccnc1N [Compound 173] | > 8.00 |
| C[C@H](c1cccnc1N)N(C)c1nc(OC[C@@]23CCCN2C[C@H](F)C3)nc(N2CC3(CCCc4sc(N)c(C#N)c43)C2)n1 [Compound 163] | > 8.00 |

* * *

TEST TARGET: GST-tagged KRAS-G12V (2-169) (Homo sapiens, UniProt P01116, G12V)
ASSAY REMARKS: Nucleotide exchange assay (NEA), SOS-mediated, HTRF, KRAS G12V
COND: Table 4; IC50 extracted at 90 min; 80 nM SOS
pIC50: −log10 of the molar value.
Each entry below lists one item and its recorded pIC50 value.

| COMPOUND | pIC50 |
| --- | --- |
| N#Cc1c(N)sc2c1C1(CC2)CN(c2nc(OCC3(CN4CCOCC4)CC3)nc(N3CCCC(C#N)C3)n2)C1 (stereo not shown) | 7.00 to 8.00 |
| CC(=O)N1CCC(N(C)c2nc(OC[C@@]34CCCN3C[C@H](F)C4)nc(N3CC4(C3)SCc3sc(N)c(C#N)c34)n2)C1C (stereo partly shown) | 7.00 to 8.00 |
| N#Cc1c(N)sc2c1C1(CC2)CN(c2nc(OC[C@@]34CCCN3C[C@H](F)C4)nc(N(CCO)Cc3cccnc3N)n2)C1 | > 8.00 |
| N#Cc1c(N)sc2c1C1(CC2)CN(c2nc(OC[C@@]34CCCN3C[C@H](F)C4)nc(N3CCCC(C#N)C3)n2)C1 (stereo partly shown) | 7.00 to 8.00 |
| CC(c1ccc(F)nc1N)N(C)c1nc(OC[C@@]23CCCN2C[C@H](F)C3)nc(N2CC3(CCc4sc(N)c(C#N)c43)C2)n1 (stereo partly shown) | > 8.00 |
| CCN(c1nc(OCC2(COC)CCCC2)nc(N2CC3(C2)SCc2sc(N)c(C#N)c23)n1)[C@H](C)c1cccnc1N | 6.00 to 7.00 |
| CC(c1cccnc1N)N(C)c1nc(OCCc2nccn2C)nc(N2CC3(CCc4sc(N)c(C#N)c43)C2)n1 (stereo not shown) | 7.00 to 8.00 |
